Target Of Assay: his-labeled human IL-13 (immunogen A) (human) (UniProt P35225)
Measurement Protocol: cell-based or functional assay
Measured Property: TARC (pg/mL), A549 cells + IL-13 5 ng/mL + TNFα; antibody at 0.5 nM
State the value, then name its unit.

35E2C3 (lead antibody, mouse hybridoma) (antibody, V domains shown, Mouse monoclonal antibody purified from hybridoma supernatant on Protein G) VH: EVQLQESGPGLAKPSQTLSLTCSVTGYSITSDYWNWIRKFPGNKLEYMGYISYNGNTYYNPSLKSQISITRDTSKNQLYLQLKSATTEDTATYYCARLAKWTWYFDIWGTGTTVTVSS VL: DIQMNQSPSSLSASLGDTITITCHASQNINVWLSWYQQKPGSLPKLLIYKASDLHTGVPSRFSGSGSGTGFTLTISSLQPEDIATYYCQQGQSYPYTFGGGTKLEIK :: 1340 pg/mL
70F10A10 (lead antibody, mouse hybridoma) (antibody, V domains shown) VH: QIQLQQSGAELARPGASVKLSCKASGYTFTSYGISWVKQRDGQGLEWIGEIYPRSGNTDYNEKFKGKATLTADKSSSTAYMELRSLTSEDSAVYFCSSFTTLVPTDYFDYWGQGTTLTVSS VL: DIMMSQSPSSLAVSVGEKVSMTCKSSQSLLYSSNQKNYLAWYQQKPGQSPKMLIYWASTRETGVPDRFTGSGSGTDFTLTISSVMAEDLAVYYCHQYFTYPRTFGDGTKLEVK :: 1500 pg/mL

Please look at the following binder next.
q: # query: TARC (pg/mL), A549 cells + IL-13 5 ng/mL + TNFα; antibody at 0.5 nM of entry 28A2E11 (lead antibody, mouse hybridoma) (antibody, V domains shown, Mouse monoclonal antibody purified from hybridoma supernatant on Protein G) VH: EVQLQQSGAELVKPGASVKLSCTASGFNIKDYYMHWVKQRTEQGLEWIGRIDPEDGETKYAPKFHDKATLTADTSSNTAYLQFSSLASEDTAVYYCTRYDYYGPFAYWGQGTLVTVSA VL: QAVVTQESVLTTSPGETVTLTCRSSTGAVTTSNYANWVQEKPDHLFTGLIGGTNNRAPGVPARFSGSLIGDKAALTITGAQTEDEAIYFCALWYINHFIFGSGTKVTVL
a: 601 pg/mL
